Target: T1, recombinant human IL-27 (human, UniProt Q14213 21-229; Q8NEV9 29-243)
T1 construct: Bought from R&D Systems (Cat. 2526-IL); also called hIL-27; rhIL-27
T1 sequence 1: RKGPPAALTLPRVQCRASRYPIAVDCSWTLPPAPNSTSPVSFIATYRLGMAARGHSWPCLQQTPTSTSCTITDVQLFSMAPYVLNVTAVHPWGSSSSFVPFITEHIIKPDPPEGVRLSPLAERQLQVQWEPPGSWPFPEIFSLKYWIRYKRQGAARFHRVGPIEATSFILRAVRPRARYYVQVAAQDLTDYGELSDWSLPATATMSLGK
T1 sequence 2: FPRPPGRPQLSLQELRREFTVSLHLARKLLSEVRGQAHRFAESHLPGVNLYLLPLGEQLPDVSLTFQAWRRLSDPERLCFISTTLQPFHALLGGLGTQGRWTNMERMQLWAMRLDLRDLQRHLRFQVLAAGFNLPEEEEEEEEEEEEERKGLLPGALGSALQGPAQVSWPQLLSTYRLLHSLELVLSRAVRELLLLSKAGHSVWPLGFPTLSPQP
Assay: SPR, hIL-27 on CM5 chip, bivalent analyte model (kd1)
metric_name: koff (s⁻¹)
A number alone suffices; assume s⁻¹.

Below, 2 binders whose answers are already recorded.
Ab7.5 (antibody, human IgG1, kappa, V domains shown, human IgG1/kappa) VH: EVKLVESGGGLVQPGGSLRLSCAASGFTFTSYSMSWVRQAPGKGLEWVAYISYDGGSAYYPDTVKGRFTISRDNSKKTLYLQMSSLKSEDTAMYYCARHGDYDDDDAMDYWGQGTSVTVSS VL: DIQMTQSPSSLSASVGDRVTITCRASENIYSYLAWYQQKPGKAPKLLVYNAETLTEGVPSRFSGSGSGTDFTLTISSLQPEDFANYYCQHHYGTPLTFGQGTKLEIKR    0.0027
Ab7.16 (antibody, human IgG1, kappa, V domains shown, human IgG1/kappa) VH: EVQLVESGGGLVQPGGSLRLSCAASGFTFTSYSMSWVRQAPGKGLEWVAYISYDGGSAYYPDTVKGRFTISRDNSKNTLYLQMNSLRAEDTAVYYCARHGDYDDDDAMDYWGQGTLVTVSS VL: DIQMTQSPSSLSASVGDRVTITCRASENIYSYLAWYQQKQGKAPKLLVYNAETLTEGVPSRFSGSGSGTDFTLTISSLQPEDFANYYCQHHYGTPLTFGQGTKLDIKR    0.0027

Next up:
Prompt: For Ab7.14 (antibody, human IgG1, kappa, V domains shown, human IgG1/kappa) VH: EVKLVESGGGLVQPGGSLRLSCAASGFTFTSYSMSWVRQAPGKGLEWVAYISYDGGSAYYPDTVKGRFTISRDNSKKTLYLQMNSLRAEDTAVYYCARHGDYDDDDAMDYWGQGTLVTVSS VL: DIQMTQSPSSLSASVGDRVTITCRASENIYSYLAWYQQKPGKAPKLLVYNAETLTEGVPSRFSGSGSGTDFTLTISSLQPEDFATYYCQHHYGTPLTFGQGTKLEIKR , what is its reported koff?
Completion: 0.0026
